experimental-target: HIV-1 Env of ZM233.6 (HIV-1)
measurement-protocol: cell-based or functional assay
property-measured: neutralization IC50

CAP256-VRC26.07 (antibody, V domains shown) VH: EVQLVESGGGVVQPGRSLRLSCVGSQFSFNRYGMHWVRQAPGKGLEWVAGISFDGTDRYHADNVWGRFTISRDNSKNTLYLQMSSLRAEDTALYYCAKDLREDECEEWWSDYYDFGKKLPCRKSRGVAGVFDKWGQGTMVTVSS VL: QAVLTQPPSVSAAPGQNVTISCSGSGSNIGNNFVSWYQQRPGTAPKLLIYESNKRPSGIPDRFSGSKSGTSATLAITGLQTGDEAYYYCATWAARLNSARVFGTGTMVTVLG = > 50 mg/L
CAP256-VRC26.04 (antibody, V domains shown) VH: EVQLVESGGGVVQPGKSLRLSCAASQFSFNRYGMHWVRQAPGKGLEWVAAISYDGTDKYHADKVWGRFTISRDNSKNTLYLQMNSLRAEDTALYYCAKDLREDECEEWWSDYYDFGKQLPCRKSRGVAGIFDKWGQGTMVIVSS VL: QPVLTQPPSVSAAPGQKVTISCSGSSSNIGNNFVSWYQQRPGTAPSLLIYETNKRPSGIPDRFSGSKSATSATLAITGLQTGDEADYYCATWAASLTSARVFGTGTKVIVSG = 0.06 mg/L
CAP256-VRC26.06 (antibody, V domains shown) VH: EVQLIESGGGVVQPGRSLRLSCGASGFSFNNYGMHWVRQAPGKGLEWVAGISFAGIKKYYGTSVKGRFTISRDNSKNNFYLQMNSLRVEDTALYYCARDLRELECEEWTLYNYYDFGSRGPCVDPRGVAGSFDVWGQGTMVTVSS VL: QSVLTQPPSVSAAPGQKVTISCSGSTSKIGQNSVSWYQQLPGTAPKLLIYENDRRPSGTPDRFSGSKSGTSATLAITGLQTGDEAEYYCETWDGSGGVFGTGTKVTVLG = > 50 mg/L
